For each record, write down the corresponding inhibition at 10 µM.
System: CYP2C8 (Homo sapiens, UniProt P10632)
Sequence (P10632 whole entry): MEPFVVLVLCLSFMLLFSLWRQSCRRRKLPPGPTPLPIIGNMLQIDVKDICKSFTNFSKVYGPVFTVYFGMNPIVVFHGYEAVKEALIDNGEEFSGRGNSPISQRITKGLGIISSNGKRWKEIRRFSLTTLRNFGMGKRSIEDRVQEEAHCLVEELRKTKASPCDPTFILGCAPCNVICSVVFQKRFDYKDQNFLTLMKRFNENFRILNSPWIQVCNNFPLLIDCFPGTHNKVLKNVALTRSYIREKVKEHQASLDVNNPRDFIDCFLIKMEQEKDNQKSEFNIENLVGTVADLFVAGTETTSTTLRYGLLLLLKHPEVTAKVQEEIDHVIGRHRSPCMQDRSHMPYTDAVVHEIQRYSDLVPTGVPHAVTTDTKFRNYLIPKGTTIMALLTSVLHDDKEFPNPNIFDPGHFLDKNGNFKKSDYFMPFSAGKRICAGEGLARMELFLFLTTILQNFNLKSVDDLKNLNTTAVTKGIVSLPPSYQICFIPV
Procedure summary: Inhibition of CYP2C8 (unknown origin) at 10 uM using paclitaxel as substrate relative to control
Type: ADME
Details: probe paclitaxel
Numbers only, in %.

Consider the following illustrative entries.
CC#C[C@]1(O)CC[C@H]2[C@@H]3CCC4=CC(=O)CC[C@]4(C)[C@H]3[C@@H](c3ccc(N(C)C)cc3)C[C@@]21C
58
CN(C)c1ccc([C@H]2C[C@@]3(C)[C@@H](CC[C@@]3(O)C#CC(C)(C)C)[C@@H]3CCC4=CC(=O)CC[C@]4(C)[C@H]32)cc1
84

We now examine a further compound.
Reported inhibition at 10 µM of `CN(C)c1ccc([C@H]2C[C@@]3(C)[C@@H](CC[C@@]3(O)C#CC3CC3)[C@@H]3CCC4=CC(=O)CC[C@]4(C)[C@H]32)cc1` : 70

====

System: Glucocorticoid receptor (Homo sapiens)
Procedure summary: Antagonist activity at human glucocorticoid receptor expressed in CHO-K1 cells harboring firefly luciferase gene assessed as inhibition of glucocorticoid receptor activity at 0.01 to 10000 nM after 20 hrs by One-Glo luciferase reporter gene assay relative to mifepristone
Assay type: cell-based
Parameters: scale not given: the % may be the effect or the level left
Could you please report measured Activity for the items listed next?
Numbers only, in %.

Please review the entries below; each comes with its answer.
CC#C[C@]1(O)CC[C@H]2[C@@H]3CCC4=CC(=O)CC[C@]4(C)[C@H]3[C@@H](c3ccc(N(C)C)cc3)C[C@@]21C
100
CN(C)c1ccc([C@H]2C[C@@]3(C)[C@@H](CC[C@@]3(O)C#CC3CC3)[C@@H]3CCC4=CC(=O)CC[C@]4(C)[C@H]32)cc1
100
CN(C)c1ccc([C@H]2C[C@@]3(C)[C@@H](CC[C@@]3(O)C#CC(C)(C)C)[C@@H]3CCC4=CC(=O)CC[C@@H]4[C@H]32)cc1
100

For each of the items listed, what is its Activity?
1. CN(C)c1ccc([C@H]2C[C@@]3(C)[C@@H](CC[C@@]3(O)C#CC(C)(C)C)[C@@H]3CCC4=CC(=O)CCC4=C32)cc1
2. CC(C)(C)C#C[C@]1(O)CC[C@H]2[C@@H]3CCC4=CC(=O)CC[C@@H]4[C@H]3[C@@H](c3ccc(N4CCOCC4)cc3)C[C@@]21C
3. CN(C)c1ccc([C@H]2C[C@@]3(C)[C@@H](CC[C@@]3(O)C#CC(C)(C)C)[C@@H]3CCC4=CC(=O)CC[C@]4(C)[C@H]32)cc1
4. CC(C)(C)C#C[C@]1(O)CC[C@H]2[C@@H]3CCC4=CC(=O)CC[C@@H]4[C@H]3[C@@H](c3ccc(N4CCN(S(C)(=O)=O)CC4)cc3)C[C@@]21C

Found:
[100, 100, 100, 100]

====

System: Androgen receptor (Homo sapiens)
Sequence (P10275 whole entry): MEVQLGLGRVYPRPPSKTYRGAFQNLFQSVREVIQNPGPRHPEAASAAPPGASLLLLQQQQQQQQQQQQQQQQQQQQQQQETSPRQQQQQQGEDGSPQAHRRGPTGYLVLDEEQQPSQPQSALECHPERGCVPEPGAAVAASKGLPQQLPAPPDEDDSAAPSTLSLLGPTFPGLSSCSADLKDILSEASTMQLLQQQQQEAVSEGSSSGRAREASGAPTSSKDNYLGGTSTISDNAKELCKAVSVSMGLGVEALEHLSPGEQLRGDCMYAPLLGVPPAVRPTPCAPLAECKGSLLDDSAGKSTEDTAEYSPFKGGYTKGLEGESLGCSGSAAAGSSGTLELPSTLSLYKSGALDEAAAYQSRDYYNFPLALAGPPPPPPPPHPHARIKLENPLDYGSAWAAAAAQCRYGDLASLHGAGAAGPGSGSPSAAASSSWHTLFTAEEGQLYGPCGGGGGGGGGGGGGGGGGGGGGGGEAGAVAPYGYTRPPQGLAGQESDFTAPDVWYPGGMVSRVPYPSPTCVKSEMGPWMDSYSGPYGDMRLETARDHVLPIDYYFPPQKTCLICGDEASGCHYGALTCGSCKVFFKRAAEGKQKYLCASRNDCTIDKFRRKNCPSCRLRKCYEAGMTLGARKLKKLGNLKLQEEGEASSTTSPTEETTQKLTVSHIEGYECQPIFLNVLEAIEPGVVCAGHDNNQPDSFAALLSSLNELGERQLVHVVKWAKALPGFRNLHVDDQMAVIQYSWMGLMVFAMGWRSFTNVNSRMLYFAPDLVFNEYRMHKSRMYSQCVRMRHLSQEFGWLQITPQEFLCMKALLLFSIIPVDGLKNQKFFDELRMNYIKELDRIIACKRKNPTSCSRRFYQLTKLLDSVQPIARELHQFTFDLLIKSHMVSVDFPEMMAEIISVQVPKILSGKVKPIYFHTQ
Procedure summary: Antagonist activity at human androgen receptor in human LNCAP cells harboring firefly luciferase gene after 20 hrs by One-Glo luciferase reporter gene assay
Each record is given Y if its reported IC50 is strictly below 0.4 µM. Records at or above 0.4 µM are given N.

CC#C[C@]1(O)CC[C@H]2[C@@H]3CCC4=CC(=O)CC[C@]4(C)[C@H]3[C@@H](c3ccc(-n4cccc4)cc3)C[C@@]21C
Y

Lookup: Bench note: check whether `CCN(CC)c1ccc([C@H]2C[C@@]3(C)[C@@H](CC[C@@]3(O)C#CC(C)(C)C)[C@@H]3CCC4=CC(=O)CC[C@@H]4[C@H]32)cc1` shows IC50 below 0.4 µM
Found: Y

Lookup: Does `CC#C[C@]1(O)CC[C@H]2[C@@H]3CCC4=CC(=O)CC[C@]4(C)[C@H]3[C@@H](c3ccc(OC)cc3)C[C@@]21C` have IC50 strictly under 0.4 µM?
Found: N

Lookup: For `CN1CCN(c2ccc([C@H]3C[C@@]4(C)[C@@H](CC[C@@]4(O)C#CC(C)(C)C)[C@@H]4CCC5=CC(=O)CC[C@@H]5[C@H]43)cc2)CC1` , is the recorded IC50 below the cut-off of 0.4 µM?
Found: N

Lookup: Does this molecule meet the criterion IC50 < 0.4 µM? `CC#C[C@]1(O)CC[C@H]2[C@@H]3CCC4=CC(=O)CC[C@]4(C)[C@H]3[C@@H](c3ccc(N(C)CCOC)cc3)C[C@@]21C`
Found: N

Lookup: # check: IC50 < 0.4 µM for `CN(C)c1ccc([C@H]2C[C@@]3(C)[C@@H](CC[C@@]3(O)C#CC(C)(C)C)[C@@H]3CCC4=CC(=O)CCC4=C32)cc1`
Found: Y

Lookup: Does `CC(C)C#C[C@]1(O)CC[C@H]2[C@@H]3CCC4=CC(=O)CC[C@]4(C)[C@H]3[C@@H](c3ccc(N(C)C)cc3)C[C@@]21C` have IC50 strictly under 0.4 µM?
Found: N

Lookup: Find out if reported IC50 for `CN(C)c1ccc([C@H]2C[C@@]3(C)[C@@H](CC[C@@]3(O)C#CC(C)(C)C)[C@@H]3CCC4=CC(=O)CC[C@@H]4[C@H]32)cc1` is less than 0.4 µM
Found: Y

Lookup: Lab note: confirm whether the reported IC50 for this molecule is below 0.4 µM, equality not counting. molecule: `CN(C)c1ccc([C@H]2C[C@@]3(C)[C@@H](CC[C@@]3(O)C#CC(C)(C)C)[C@@H]3CCC4=CC(=O)CC[C@]4(C)[C@H]32)cc1`
Found: N

Lookup: is_below(IC50, 0.4 µM) for `CN(C)c1ccc([C@H]2C[C@@]3(C)[C@@H](CC[C@@]3(O)C#CC3CC3)[C@@H]3CCC4=CC(=O)CC[C@]4(C)[C@H]32)cc1` ?
Found: N

Lookup: Find out if reported IC50 for `COCC#C[C@]1(O)CC[C@H]2[C@@H]3CCC4=CC(=O)CC[C@]4(C)[C@H]3[C@@H](c3ccc(N(C)C)cc3)C[C@@]21C` is less than 0.4 µM
Found: N
